# experimentalProtocol: yeast display, Sf9 membrane polyspecificity reagent, FACS + sequencing; frameworks hold sequencing errors
parameter: polyreactivity (PSR sort gate)

// solved cases for polyreactivity (PSR sort gate) follow
sequenceRecord	polyreactivity (PSR sort gate)
QVQLVESGGGLVQAGGSLRLSCAASGRIFGYYAMGWYRQAPGKERELVAAISYTGGSTYYADSVKGRFTISRDNAKNTVYLQMNSLKPEDTAVYYCAAKHYKRLDYWGQGTQVTVSS	high polyreactivity
QVQLVESGGGLVQAGGSLRLSCAASGSTFIYNAMGWYRQAPGKERELVAGITGSGGSTYYADSVKGRFTISRDNAKNNVYLQMNSLKPEDTAVYYCAADRHIHYTDARMDYWGQGTQVTVSS	low polyreactivity
QVQLVESGRGLVQAGGSLRLSCAASGRIFYRYVMGWYRQAPGKERELVAAITSSGGSTYYADSVKGRFTISRDNAKNTVYFQMNSLKPEDTAVYYCSADRYTRYRYNYWGQGTQVTVSS	high polyreactivity
QVQLVESGGGLVQAGGSLRLSCAASGRTFVKNAMGWYRQAPGKERELVAAIDRGSRTNYADSVKGRFTISRDNAKNTVYLQMNSLKPEDTAVYYCATRYRVRDDQTGTWSIFGYWGQGTQVTVSS	high polyreactivity
QVQLVESGGGLDQAGGSLRLSCAASGLIFIQNAMGWYRQAPGKEREFVAAISVSGRTYYADSVKGRFTISRDNAKNTVYLQMNSLKPEDTAVYYCAARSRSWRQRYGDFDYWGQGTQVTVSS	low polyreactivity
QVQLVESGGGLVQAGGSLRLSCAASGSTFPKYAMGWYRPAPGKERELVAAITSRGSTYADSVKGRFTISRDNAKNTVYLPMNSLKPVDTAVYYCAKDSRYASRDYWGQGTQVTVSS	high polyreactivity
QVQLVESGGGLVQAGGSLRLSCAASGSTFFSNAMGRYRQAPGKERELVAAISWSGGSTYYADSVKGRFTISRDNAKNTVYLKLNSLKPEDTAVYYCGADYYGYWYDFEGDHWGQGTQVTVSS	low polyreactivity
QVQLVESGGGLVQAGGSLRLSCAASGSIFAAYAMGWYRQAPGKERELVAVINSRGGITSYADSVKGRFTISRDNAKNTVYLQMNSLKPEDTAVYYFAARTWYSWRYDYWGQGTQVTVSS	high polyreactivity
QVQLVESGGGLVQAGGSLRLSCAASGITLYKYTMGWYRQAPGKERELVAAISGGGSTTYADSVKGRFTISRDNAKNTVYLQMNSLKPEDTAVYYCNVPGGKPSYYEEYGYWGQGTQVTVSS	low polyreactivity
QVQLVESGGGLVQAGGSLRLSCAASGLTFRYYAMGWYRQAPGKERELVAAISWSGGSTYYADSVKGRFTISRDNAKNTVYLQMNSLKPEDTAVYFCNAELYPQWYDSGQTMEYWGQGTQVTVSS	high polyreactivity

Query: Can you share its polyreactivity (PSR sort gate)? I mean this sequence: QVQLVESGGGLVQAGGSLRLSCAASGFIFDYYAMGWYRQAPGKERELVAAITRDGGGTYYADSVKGRFTISRDNEKNSVYLQMNSLKPEDTAVYYCAAETYWYYRANYDYWGQGTQVTVSS
Result: high polyreactivity

Query: Can you share its polyreactivity (PSR sort gate)? I mean this sequence: QVQLVESGGGLVQAGGSLRLSCAASGSIIGYYAMGWYRQAPGKERELVAAITASGGSTYYADSVKGRFTISRDNAKNTVYLQMNSLKPEDTAVYHCAADRIGGPGSYLYDYWGQGTQVTVSS
Result: low polyreactivity

Query: Can you share its polyreactivity (PSR sort gate)? I mean this sequence: QVQLVESGGGLVQAGVRLRLSCPASGITFEGYAMGWYRKAPGKERELVAAIRSSGTSTYYADSVKGRFTISRDNAKNTVYLQMNSLKPEDTAVYYCNRARSSSRYDYWGQGTKVTVSS
Result: low polyreactivity

Query: Can you share its polyreactivity (PSR sort gate)? I mean this sequence: QVQLVESGGGLVQAGGSLRLSCAASGLIFGTNAMGWYRQAPGKERELVAAISGSGGRTYYADSVKGRFTISRDNAKNTVYLQMNSLKPEDTAVYYCATAWYLGRYRRLGYWGQGTQVTVSS
Result: high polyreactivity

Query: Can you share its polyreactivity (PSR sort gate)? I mean this sequence: QVQLVESGGGLVQAGGSLRLSCAASGSISDWNAMGWYRQAPGKERELVAAINWSGDTTYYADSVKGRFTISRDTAKNTVYLQMNSLKPEDTAVYYCAADLVVDYEWYDYWGQGTQVTVSS
Result: high polyreactivity

Query: Can you share its polyreactivity (PSR sort gate)? I mean this sequence: QVQLVESGGGLVQAGGSLRLSCAASGRIFPVNTMGWYREAPGKERELVAAITSGGGTYYADSVKGRFTISRDNAKNTVYLQMNSLKPEDTAVYYCNAPEGRKPYDSWGQGTQVTVSS
Result: low polyreactivity

Query: Can you share its polyreactivity (PSR sort gate)? I mean this sequence: QVQLVESGGGLVQAGGSLRLSCAASGLTFPYYAMGWYRQAPGKERELVASISWSGASTYYADSVKGRSTISRDYAKNTVYLQMNSLKPEDTAVYYCNAGFYGSYDYWGQGTQVTVSS
Result: high polyreactivity

Query: Can you share its polyreactivity (PSR sort gate)? I mean this sequence: QVQLVESGGGLVQAGGSLRLSCAASGITFTDYAMGWYRQAPGKERELVAAISGIGSTTYYADSVKGRFTISRDNAKNTVYLQMNSLKPEDTAVYYCNALLAYTYWYDYWGQGTQLTVSS
Result: high polyreactivity

Query: Can you share its polyreactivity (PSR sort gate)? I mean this sequence: QVQLVESGGGLVQAGGSLRLSCAASGSTLAFYAMGWYRQAPGKERELVAAIRRGGSTYYADSVKGRFTISRDNAKNTVYLQMNSLKPEDTAVYYCAARYRRVSYYYWGQGTQVTVSS
Result: high polyreactivity

Query: Can you share its polyreactivity (PSR sort gate)? I mean this sequence: QVQLVESGGGLVQAGGSLRLSCAASGFTFTSYTMGWYRQAPGKERELVAGISTNGGTTYYADSVKGRFTISRDNAKNTVYLQMNSLKPEDTAVYYCNAKRKYGRFPKKYYYWGQGTQVTVSS
Result: high polyreactivity

Query: Can you share its polyreactivity (PSR sort gate)? I mean this sequence: QVHLHETGGGLVQAGGSLRLSCAASGTISVTYNMGWYRQAPGKEREFVAGNSTGATTNYADSVKGRFTISRDNANNTVYLQMNSLKPEDTAVYYCAAHIYRKDHFYYWGQGTQVTVSS
Result: low polyreactivity

###

# experimentalProtocol: yeast display, Sf9 membrane polyspecificity reagent, FACS + sequencing; frameworks hold sequencing errors
parameter: polyreactivity (PSR sort gate)

// solved cases for polyreactivity (PSR sort gate) follow
sequenceRecord	polyreactivity (PSR sort gate)
QVQLVESGGGLVQAGGSLRLSCAASGITFGPYAMGWYRQAPGKERELVAAITWGGGSTYYADSVKGRFTISRDNAKTTVYLQMNSLKPEDTAVSYCNAEGSTTSRYLPYDYWGQGTQVTVSS	low polyreactivity
QVQLVESGGGLVQAGGSLRLSCAASGSTFRPYAMGWYRQAPGKERELVAAITSTDVNTYYADSVKGRFTISRDNAKNTVYLQMNSLKPEDTAVYYCAAVYLGYYGVSDMEYWGQGTQVTVSS	high polyreactivity
QDQHVESGGGLVQAGGSLRLSCAASGRTFAGYAMGWYRQAPGKERELVATISGRGGSTSYADSVKGRFTISRDNAKNTVYLQMNSLIPEDTAVYYCAKASWYKYKYDYWGQGTQVTVSS	high polyreactivity
QVQLVESGGGLVQAGGSLRLSCAASGITFRRYAMGWYRQAPGKERELVASITSNGGSTYYADSVKGRFTISRDTAKNTVYLQMNSLKPEDTAVYYFAADFAVGQWLTQTSVEYDYWGQGTQLTVSS	high polyreactivity

Lab note: next sequence to report on.
Query: Can you share its polyreactivity (PSR sort gate)? I mean this sequence: QVQIVESGGGLVQAGGSLRVSCAASGSIFKIYAMGWYRQAPGKERELVASITGSGGSTYYADSVKGRFTISRDNAKNTVYLQMNSLKPEDTAVYYCAAAVLGSSTSEVDPDRPEYYYWGHGTQVTVSS
Result: low polyreactivity

###

# experimentalProtocol: yeast display, Sf9 membrane polyspecificity reagent, FACS + sequencing; frameworks hold sequencing errors
parameter: polyreactivity (PSR sort gate)

sequenceRecord	polyreactivity (PSR sort gate)
QFQLVESCGGLVQAGGSLRLSCAASGSIFYYYVMGWYRQAPGKEREFVAAISWRGDSTYYADSVKGRFTISRDNAKNTVYLQMNSLKPEDTAVYYCNADYPWSVVGYDYLGQGTQVTVSS	low polyreactivity
QVQLVESGGGLVQAGGSLRLSCAASGSTFRGYAMGWYRQAPGKERELVAAIRFSGGRTYYADSVKGRFTISRDNAKNTVYLQMNSLKPEDTAVYYCAKDYRPGWTGTDFYYWGQGTQVTVSS	low polyreactivity
QVQLVESGGGLVQAGGSLRLICAASGSTFKTYAMGWYRQAPGQEREFVASISGSGGSTSYADSVKGRFTISRDNAKNTVYLQMNSLKPEDTAVYYCAARLQKPTIGKGVYYWGQGTLVTVSS	high polyreactivity
QVQLQESGGGLVQAGGSLRLSCAASGYISTFSSEMGWYRQAPGKERELVASIAPGCTTSYADSVKGRFTISRDKAKNTVYLQMNILKPEDTAVYFCAVVYTVPASFGYWGQGTQVTVIS	high polyreactivity
QVQLVESGGGLVQAGGSLRLSCAASGITFVYYAMGWYRQAPGKERELVASISSADNTHYADSVKGRFTISRDNAKNTVYLQMNSQKPEDTAVYYCAADYWWNLRHYSTGGYWGQGTQVTVSS	low polyreactivity
QEQLVESGGGLVQAGGSLRLSCAASGSIRYYAMGWDRQAPGKESELVATITRGGSTYYADSVKGRFTISRDNAKNTVYLQMNSLKPEDTAVYYCAARRAVRVGYYWHDISSYDYWGQGTQVTVSS	low polyreactivity
QVQLVESGGGLVQAGGSLRLSCAASGRTLPFYAMGWYRPAPGKERELVAAISRSGARTYYADSVKGRFTISRDHAKNTVYLQMNSLKPEDTAVYYFAAGFMWYIGNSKFDYWGQGTQVTVSS	high polyreactivity
QVQLVESGGGLVQAGGSLRLSCAASGFTFSRYAMGWYIQAPGKERELVAAITRGGSTNYADSVKGRFTISRDNAKNTVYLQMNSLKPEDTAVYYCAVRIRYSTNAYYYWGQGTQVTVSS	high polyreactivity

Query: Can you share its polyreactivity (PSR sort gate)? I mean this sequence: QVQLVESGGGLVQAGGSLRLSCAASGYIFGNYAMGWYRQAPGKERELVAAISKSGVTTYYADSVKGRFTISRDNAKNTVYLQMNSLKPEDTAVYYCIARSWRPINARYNEYDYWGQGTQVTVSS
Result: low polyreactivity

Query: Can you share its polyreactivity (PSR sort gate)? I mean this sequence: QVQLVESGGRLVKAGGSLRLSCAASGRNFFYYTMAWYRQAPGKERELVATISWRGGSTYYADSVKGRFTFSRDNAKNTDYLLMNSLKPEETAVYYCAARYRCRYDSWGQGTQVTVSS
Result: high polyreactivity

Query: Can you share its polyreactivity (PSR sort gate)? I mean this sequence: QVQLVESGGRLVQAGGSRRLSCAGSGSIFHHNAMGSYRQAPGKESELVAAISSRSGNTYYADSVKGRFTISRDNAKNTVYLQMNSLKPEDPAVYYCAAGIRLSYSTYDSWGQGTQVTVSS
Result: high polyreactivity
